The measurements presented in this section are drawn from patent US20220064272A1.

Target: T1, TauC3 (C-terminally truncated tau fragment ending at aspartate 421 of htau40) (human, UniProt P10636 1-738)
T1 construct: Generated and purified by Genscript; also called Human TauC3; recombinant TauC3 protein
T1 sequence (P10636 other isoform, or with tags, fused parts or gaps): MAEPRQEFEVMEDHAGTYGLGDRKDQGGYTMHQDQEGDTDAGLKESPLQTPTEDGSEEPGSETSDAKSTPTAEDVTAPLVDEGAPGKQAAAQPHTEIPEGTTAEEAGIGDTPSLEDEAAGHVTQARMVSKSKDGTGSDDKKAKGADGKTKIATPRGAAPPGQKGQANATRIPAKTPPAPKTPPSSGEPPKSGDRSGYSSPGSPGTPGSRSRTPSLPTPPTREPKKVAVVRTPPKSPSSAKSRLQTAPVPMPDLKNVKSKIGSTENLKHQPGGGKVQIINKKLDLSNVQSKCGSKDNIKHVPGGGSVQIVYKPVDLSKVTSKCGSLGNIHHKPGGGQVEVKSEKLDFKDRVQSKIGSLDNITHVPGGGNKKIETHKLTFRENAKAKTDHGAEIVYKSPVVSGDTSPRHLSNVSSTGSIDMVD
Experiment: binding ELISA on coated TauC3, OD650
quantity.kind: EC50 (nM)
Report the value in nM with no unit label.

Request: Fill in: EC50 of Tau01 HCKC (antibody, V domains shown, human IgG4 kappa (HuG4K)) VH: LVQLVESGGGLVQPGGSLKLSCAASGFTFNTYAMNWVRQASGKGLEWVGRIRSKSNNYATYYAASVKGRFTISRDDSKSMAYLQMDSLKTEDTAVYYCVGGGDFWGQGTLVTVSS VL: DIQMTQSPSSLSASVGDRVTITCRASQEISVYLSWFQQKPGKAPKRLIYGAFKLQSGVPSRFSGSRSGTEYTLTISSLQPEDFATYYCLQYVRYPWTFGGGTKVEIK is ___
Result: 1.34

Request: Fill in: EC50 of Tau01 HBKC (antibody, V domains shown, human IgG4 kappa (HuG4K)) VH: EVQVVESGGGLVQPGGSLKLSCAASGFTFNTYAMNWVRQASGKGLEWVARIRSKSNNYATYYADSVKGRFTISRDDSKSMVYLQMDSLKTEDTAVYYCVGGGDFWGQGTLVTVSS VL: DIQMTQSPSSLSASVGDRVTITCRASQEISVYLSWFQQKPGKAPKRLIYGAFKLQSGVPSRFSGSRSGTEYTLTISSLQPEDFATYYCLQYVRYPWTFGGGTKVEIK is ___
Result: 0.99

Request: Fill in: EC50 of Tau01 HCKB HuG4K (antibody, V domains shown, human IgG4 kappa (HuG4K)) VH: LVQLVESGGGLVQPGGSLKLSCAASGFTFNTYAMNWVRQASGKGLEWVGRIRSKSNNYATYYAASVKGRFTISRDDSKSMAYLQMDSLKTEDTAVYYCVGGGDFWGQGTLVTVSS VL: DIQMTQSPSSLSASVGDRVTITCRASQEISVYLSWFQQKPGKAIKRLIYGAFTLQSGVPSRFSGSRSGSEYTLTISSLQPEDFATYYCLQYVRYPWTFGGGTKVEIK is ___
Result: 0.84

Request: Fill in: EC50 of Tau01 HBKA (antibody, V domains shown, human IgG4 kappa (HuG4K)) VH: EVQVVESGGGLVQPGGSLKLSCAASGFTFNTYAMNWVRQASGKGLEWVARIRSKSNNYATYYADSVKGRFTISRDDSKSMVYLQMDSLKTEDTAVYYCVGGGDFWGQGTLVTVSS VL: DIQMTQSPSSLSASVGDRVTITCRASQEISVYLGWYQQKPGKAPKRLIYGAFKLQSGVPSRFSGSRSGTEFTLTISSLQPEDFATYYCLQYVRYPWTFGGGTKVEIK is ___
Result: 1.39

Request: Fill in: EC50 of Tau01 HCKA (antibody, V domains shown, human IgG4 kappa (HuG4K)) VH: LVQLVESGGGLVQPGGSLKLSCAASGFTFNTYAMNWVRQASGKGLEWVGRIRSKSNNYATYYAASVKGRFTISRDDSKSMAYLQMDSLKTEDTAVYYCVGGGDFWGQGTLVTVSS VL: DIQMTQSPSSLSASVGDRVTITCRASQEISVYLGWYQQKPGKAPKRLIYGAFKLQSGVPSRFSGSRSGTEFTLTISSLQPEDFATYYCLQYVRYPWTFGGGTKVEIK is ___
Result: 6.45
